- Study system: GPR119 (WT mouse descending colon mucosa) (Mus musculus)
- Construct: native full-length receptor in L-cells of intact mouse colonic mucosa (Ussing chamber); no recombinant protein
- Test: short-circuit current (Isc) in native mouse descending colon mucosa, Ussing chamber
- Assay setup: agonist; apical addition; indirect tissue read-out (PYY-mediated fall in Isc) after 10 nM VIP; 11.1 mM glucose; partial agonist
Test readout: EC50 (nM)
# unit: nM | format: bare number

Lookup result for CC(C)c1noc(C2CCN(c3ncnc(Nc4ccc(S(C)(=O)=O)cc4F)c3[N+](=O)[O-])CC2)n1 [AR231453] ; measured EC50: 1.2

###

Field: EC50. Provide a value for each of the molecules that follow.
- Study system: GPR119 (WT mouse descending colon mucosa) (Mus musculus, UniProt Q7TQP3)
- Construct: native full-length receptor in L-cells of intact mouse colonic mucosa (Ussing chamber); no recombinant protein
- Sequence (Q7TQP3 whole entry): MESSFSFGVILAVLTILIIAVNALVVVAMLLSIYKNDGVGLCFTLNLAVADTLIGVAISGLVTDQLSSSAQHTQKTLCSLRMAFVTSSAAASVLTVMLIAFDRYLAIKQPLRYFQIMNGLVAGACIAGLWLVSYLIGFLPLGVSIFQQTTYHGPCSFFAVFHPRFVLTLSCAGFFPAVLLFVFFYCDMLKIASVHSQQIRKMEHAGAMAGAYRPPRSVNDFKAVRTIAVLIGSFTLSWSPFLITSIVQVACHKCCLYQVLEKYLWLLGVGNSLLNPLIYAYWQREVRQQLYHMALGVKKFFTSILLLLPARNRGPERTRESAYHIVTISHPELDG
- Test: short-circuit current (Isc) in native mouse descending colon mucosa, Ussing chamber
- Assay setup: agonist; apical addition; indirect tissue read-out (PYY-mediated fall in Isc) after 10 nM VIP; 11.1 mM glucose
Report the figure in µM without appending any unit label.

Record summary for CCCCCCCC/C=C\CCCCCCCC(=O)NCCO [OEA] : reported EC50 = 14.7

Record CCCCCCCC/C=C\CCCCCCCC(=O)OC(CO)CO [2-OG] , field EC50: 4.9
